- method description: in vivo
- condition parameters: male, Sprague Dawley, rat, iv, 4.84 umol/kg
measurement label: AUC(0-inf) (µM·h)
Write the answer as a number in µM·h, unit excluded.

-- ask Returns the measured AUC(0-inf) for the input molecule. Input: C=CCN1CC[C@]23c4c5ccc(O)c4O[C@H]2C(=O)CC[C@@]3(O)[C@H]1C5 [Naloxone, reference compound]
-- reply 1.46

-- ask Returns the measured AUC(0-inf) for the input molecule. Input: C=CCN1CC[C@]23c4c5ccc(O)c4O[C@H]2[C@@H](OCCOCCOCCOCCOCCOCCOCCOC)CC[C@@]3(O)[C@H]1C5 [Naloxegol, reference compound]
-- reply 0.741

Consider the record given below.
-- ask Returns the measured AUC(0-inf) for the input molecule. Input: C=CCN1CC[C@]23c4c5ccc(O)c4O[C@H]2[C@@H](OCc2cn(CCNCCCCCCOc4cc(OCCCc6c(C)n[nH]c6C)cc(C(=O)O)c4)nn2)CC[C@@]3(O)[C@H]1C5 [AG10-L2-Nal]
-- reply 16.9

###

- method description: in vivo
- condition parameters: male, Sprague Dawley, rat, sc, 15.9 μmole/kg, Concentration, subcutaneous 15.9 μmole/kg, time 2 h, individual animals
measurement label: concentration at 2 h (µM)
Write the answer as a number in µM, unit excluded.

-- ask Returns the measured concentration at 2 h for the input molecule. Input: COc1ccc2c3c1O[C@H]1[C@@H](OCc4cn(CCNCCCCCCOc5cc(OCCCc6c(C)n[nH]c6C)cc(C(=O)O)c5)nn4)CC[C@@]4(O)[C@@H](C2)N(C)CC[C@]314
-- reply 7.09

###

- method description: in vivo
- condition parameters: male, Sprague Dawley, rat, sc, percentage CSF to plasma ratio
measurement label: Kp
Would you mind answering with just the numeric figure?

-- ask Returns the measured Kp for the input compound. Input: COc1ccc2c3c1O[C@H]1[C@@H](OCc4cn(CCNCCCCCCOc5cc(OCCCc6c(C)n[nH]c6C)cc(C(=O)O)c5)nn4)CC[C@@]4(O)[C@@H](C2)N(C)CC[C@]314
-- reply 0

###

- assayed target: purified human TTR (Homo sapiens, UniProt P02766)
- method description: Fluorescence polarization (FP) binding assay, ligands to TTR in buffer
- condition parameters: FP assay, Kd from IC50 by Cheng-Prusoff; read-out: binding affinity to TTR in buffer (Kd)
measurement label: pKd
The value called pKd is obtained by taking minus log10 of the concentration in mol/L.

-- ask What pKd appears in the records for this compound with purified human TTR (Homo sapiens, UniProt P02766)? Cc1n[nH]c(C)c1CCCOc1cc(OCCCCCCN)cc(C(=O)O)c1
-- reply 7.16

###

- method description: in vivo
- condition parameters: male, Sprague Dawley, rat, iv, 4.84 umol/kg
measurement label: half-life (h)
Write the answer as a number in h, unit excluded.

-- ask Returns the measured half-life for the input compound. Input: C=CCN1CC[C@]23c4c5ccc(O)c4O[C@H]2C(=O)CC[C@@]3(O)[C@H]1C5 [Naloxone, reference compound]
-- reply 0.87

***
-- ask Returns the measured half-life for the input compound. Input: C=CCN1CC[C@]23c4c5ccc(O)c4O[C@H]2[C@@H](OCCOCCOCCOCCOCCOCCOCCOC)CC[C@@]3(O)[C@H]1C5 [Naloxegol, reference compound]
-- reply 1.72

-- ask Returns the measured half-life for the input compound. Input: C=CCN1CC[C@]23c4c5ccc(O)c4O[C@H]2[C@@H](OCc2cn(CCNCCCCCCOc4cc(OCCCc6c(C)n[nH]c6C)cc(C(=O)O)c4)nn2)CC[C@@]3(O)[C@H]1C5
-- reply 5.98
